Every entry's value here was drawn from PubChem BioAssay AID1159580.

- procedure.text: chemical genetic growth profiling, strain panel (AID 1159580);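 also: tested at 20 µM; growth read once vehicle control cultures reached saturation at 30 °C; 1 = growth at the plate median or of vehicle wells; lower values mean less growth of the strain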
- condition.details: S. cerevisiae deletion strains, growth OD, locus YMR058W, strain fet3, hits give low values
Hit rate of the full screen: of about 5,500 compounds, about 2,000 (36%) were called active. Inconclusive results (about 18%) are left out. The list shows a part of the results.
Documented normalized growth across a set of compounds
The answer should be a number; do not append a unit.

Consider the worked cases shown below.
{"compound": "CC1O[C@@H](Oc2c(-c3ccc(O)c(O)c3)oc3cc(O)cc(O)c3c2=O)[C@H](O)[C@H](O)[C@H]1O (some centres undefined)", "normalized growth": 0.99}
{"compound": "CCOCN(C(=O)CCl)c1c(C)cccc1CC", "normalized growth": 0.988}
{"compound": "COc1ccc(-c2cc(=O)c3c(O)cc(O[C@@H]4O[C@H](CO[C@H]5O[C@H](C)[C@@H](O)[C@H](O)[C@@H]5O)[C@@H](O)[C@H](O)[C@H]4O)cc3o2)cc1O", "normalized growth": 1.01}

Please examine the following record next.
[in] Tell me the measured normalized growth of COc1ccc(-c2cc(=O)c3c(O)cc(O[C@H]4O[C@H](CO[C@@H]5O[C@@H](C)[C@H](O)[C@@H](O)[C@H]5O)[C@@H](O)[C@H](O)[C@H]4O)cc3o2)cc1 , please.
[out] 1

* * *

- procedure.text: chemical genetic growth profiling, strain panel (AID 1159580)
- condition.details: S. cerevisiae deletion strains, growth OD, locus YGR252W, strain gcn5, hits give low values
The whole screen tested about 5,500 compounds, of which about 2,000 (36%) were called active. About 18% were inconclusive and are not listed. Some of the results follow.
reported.endpoint: normalized growth
The answer should be a number; do not append a unit.

{"compound": "CC[n+]1c(-c2ccccc2)c2cc(N)ccc2c2ccc(N)cc21", "normalized growth": 0.94}
{"compound": "CN1C[C@H](C(=O)N[C@]2(C)O[C@@]3(O)[C@@H]4CCCN4C(=O)[C@H](Cc4ccccc4)N3C2=O)C[C@@H]2c3cccc4[nH]cc(c34)C[C@H]21", "normalized growth": 0.741}
{"compound": "CCOCN(C(=O)CCl)c1c(C)cccc1CC", "normalized growth": 1.04}

[in] Tell me the measured normalized growth of CNC(=O)Oc1cccc2c1OC(C)(C)O2 , please.
[out] 0.941

[in] Tell me the measured normalized growth of NC(=O)c1ncn([C@@H]2O[C@H](CO)[C@@H](O)[C@H]2O)n1 , please.
[out] 0.993

[in] Tell me the measured normalized growth of Oc1cc2c(cc1O)C1c3ccc(O)c(O)c3OCC1(O)C2 (stereo unspecified) , please.
[out] 0.992

[in] Tell me the measured normalized growth of Cc1cc(OC(=O)c2c(C)cc(OC(=O)c3c(C)cc(O)cc3O)cc2O)cc(O)c1C(=O)O , please.
[out] 0.872

[in] Tell me the measured normalized growth of CC(C)(C)NCC(O)c1cc(O)cc(O)c1 (stereo unspecified) , please.
[out] 1.15

[in] Tell me the measured normalized growth of C[C@@H]1CC[C@@]2(NC1)O[C@H]1C[C@H]3C4CC=C5C[C@@H](O)CC[C@]5(C)C4CC[C@]3(C)C1[C@@H]2C (stereo partly specified) , please.
[out] 0.254

[in] Tell me the measured normalized growth of CC(C)N(CCC(C(N)=O)(c1ccccc1)c1ccccn1)C(C)C (stereo unspecified) , please.
[out] 0.997

[in] Tell me the measured normalized growth of NC(=O)NCC(N)C(=O)O (stereo unspecified) , please.
[out] 0.987

[in] Tell me the measured normalized growth of CC(CC(O)C1OC1(C)C)[C@@H]1CCC2(C)C3=CCC4C(C)(C)C(=O)CCC4(C)C3CC[C@@]12C (stereo partly specified) , please.
[out] 1.17

[in] Tell me the measured normalized growth of CCC/C=C1\OC(=O)C2=C1CCC=C2 , please.
[out] 0.974

[in] Tell me the measured normalized growth of CNC(C)C(O)c1ccccc1 (stereo unspecified) , please.
[out] 1.01

[in] Tell me the measured normalized growth of CN(C)c1nc(N)c(C(=O)N=C(N)N)nc1Cl , please.
[out] 1.02

[in] Tell me the measured normalized growth of COc1c(C(C)C)oc2cc3oc(=O)ccc3cc12 , please.
[out] 0.55

[in] Tell me the measured normalized growth of CC(C)c1c(O)ccc2c1CCC1[C@@](C)(C=O)CCC[C@]21C (stereo partly specified) , please.
[out] 0.248

[in] Tell me the measured normalized growth of CC1CCC2(OC1)OC1CC3C4CC[C@H]5C[C@@H](O)CC[C@]5(C)C4CC(=O)[C@]3(C)C1C2C (stereo partly specified) , please.
[out] 0.992

[in] Tell me the measured normalized growth of CCCCCCC(C)OC(=O)COc1ccc(Cl)cc1Cl (stereo unspecified) , please.
[out] 1

* * *

- procedure.text: chemical genetic growth profiling, strain panel (AID 1159580)
- condition.details: S. cerevisiae deletion strains, growth OD, locus YLR384C, strain iki3
The campaign covered roughly 5,500 compounds. About 2,000 (36%) were called active. Another 18% or so got no clear call; they are omitted. No stated cut-off is given here; in the data, active means normalized growth mostly below about 0.91 (no sharp cut-off); inconclusive means no clear call, values can overlap the other calls; inactive means mostly above about 0.92. This is one part of the list.
Would you mind answering with one of these outcomes? active, inactive

{"compound": "O=C(O)C1=C[C@@H](O)[C@@H](O)[C@H](O)C1", "category": "inactive"}

[in] State the result this test recorded for CC(CC(C(N)=O)(c1ccccc1)c1ccccc1)N(C)C (centres undefined) .
[out] inactive

[in] State the result this test recorded for C=C1CCC2(OC1)OC1CC3C4CC=C5CC(O)CC(O)C5(C)C4CCC3(C)C1C2C (centres undefined) .
[out] inactive

[in] State the result this test recorded for Cc1cc(C2CCCCC2)n(O)c(=O)c1 .
[out] active

* * *

- procedure.text: chemical genetic growth profiling, strain panel (AID 1159580);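 also: tested at 20 µM; growth read once vehicle control cultures reached saturation at 30 °C; 1 = growth at the plate median or of vehicle wells; lower values mean less growth of the strain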
- condition.details: S. cerevisiae deletion strains, growth OD, locus YBR023C, strain chs3, hits give low values
In all, about 5,500 compounds went through this assay and about 2,000 (36%) were called active. Inconclusive results (about 18%) are left out. The list shows a part of the results.
reported.endpoint: normalized growth
The answer should be a number; do not append a unit.

{"compound": "OCC(O)C(O)C(O)C(O)C(O)CO (centres undefined)", "normalized growth": 0.995}
{"compound": "CC1(C)C(=O)C=C[C@@]2(C)C1C[C@@H](O)[C@]1(C)C2CC[C@@]2(C)[C@H](c3ccoc3)OC(=O)[C@H]3O[C@]321 (some centres undefined)", "normalized growth": 1.01}
{"compound": "N#Cc1nn(-c2c(Cl)cc(C(F)(F)F)cc2Cl)c(N)c1S(=O)C(F)(F)F (centres undefined)", "normalized growth": 1}
{"compound": "COC(=O)c1c(C)cc(OC)cc1O", "normalized growth": 0.973}
{"compound": "C[N+](C)(C)CC(O)CC(=O)O (centres undefined)", "normalized growth": 0.985}
{"compound": "O=c1c(O)c(-c2ccc(O)c(O)c2)oc2c(O)c(O)cc(O)c12", "normalized growth": 0.929}

[in] Tell me the measured normalized growth of CN(C)c1ccc2nc3ccc(=[N+](C)C)cc-3sc2c1 , please.
[out] 1.07

[in] Tell me the measured normalized growth of CC(=O)OC(C)C[N+](C)(C)C (centres undefined) , please.
[out] 1

* * *

- procedure.text: chemical genetic growth profiling, strain panel (AID 1159580);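 also: tested at 20 µM; growth read once vehicle control cultures reached saturation at 30 °C; 1 = growth at the plate median or of vehicle wells; lower values mean less growth of the strain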
- condition.details: S. cerevisiae deletion strains, growth OD, locus YLR262C, strain YPT6
The whole screen tested about 5,500 compounds, of which about 2,000 (36%) were called active. Roughly 18% stayed inconclusive and do not appear here. No stated cut-off is given here; in the data, active means normalized growth mostly below about 0.91 (no sharp cut-off); inconclusive means no clear call, values can overlap the other calls; inactive means mostly above about 0.92. This is one part of the list.
Would you mind answering with one of these outcomes? active, inactive

Please review the following examples before continuing.
{"compound": "CC1(C)O[C@H]2CC(=O)OC[C@]23[C@H]2CC[C@@]4(C)[C@H](c5ccoc5)OC(=O)[C@H]5O[C@]54[C@]2(C)C(=O)C[C@@H]13", "category": "inactive"}
{"compound": "CC(=O)OC1CN2CCC1CC2 (stereo not drawn)", "category": "inactive"}
{"compound": "CC1CCC2(OC1)OC1CC3C4CC[C@H]5C[C@@H](O)CC[C@]5(C)C4CC(=O)[C@]3(C)C1C2C (stereo partly drawn)", "category": "inactive"}
{"compound": "CC(=O)OCC1=C(C(=O)O)N2C(=O)[C@@H](NC(=O)Cc3cccs3)[C@H]2SC1", "category": "inactive"}
{"compound": "OC1(C(F)(F)F)CC(c2ccccc2)=NN1 (stereo not drawn)", "category": "active"}

[in] State the result this test recorded for CC[n+]1c(-c2ccccc2)c2cc(N)ccc2c2ccc(N)cc21 .
[out] inactive

* * *

- procedure.text: chemical genetic growth profiling, strain panel (AID 1159580);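 also: tested at 20 µM; growth read once vehicle control cultures reached saturation at 30 °C; 1 = growth at the plate median or of vehicle wells; lower values mean less growth of the strain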
- condition.details: S. cerevisiae deletion strains, growth OD, locus YHR030C, strain SLT2, hits give low values
About 2,000 (36%) of roughly 5,500 compounds were called active. Inconclusive results (about 18%) are left out. Some of the results follow. Where a SMILES comes first, the peptide text is derived from it.
reported.endpoint: normalized growth
The answer should be a number; do not append a unit.

{"molecule": "O=c1c(O)c(-c2cc(O)c(O)c(O)c2)oc2cc(O)cc(O)c12", "normalized growth": 1.01}
{"molecule": "N#Cc1nn(-c2c(Cl)cc(C(F)(F)F)cc2Cl)c(N)c1S(=O)C(F)(F)F (centres undefined)", "normalized growth": 1.01}
{"molecule": "COC(=O)[C@H](Cc1ccccc1)NC(=O)[C@@H](N)CC(=O)O (H-Asp-Phe-OMe)", "normalized growth": 1.02}

[in] Tell me the measured normalized growth of CC1=CC(=O)C2=C(C)CC[C@@H]3[C@H](OC(=O)[C@H]3C)[C@@H]12 , please.
[out] 0.99

[in] Tell me the measured normalized growth of O=C(Nc1ccccc1)Nc1ccc(Cl)cc1[N+](=O)[O-] , please.
[out] 0.721

[in] Tell me the measured normalized growth of CC(CC(O)C1OC1(C)C)[C@@H]1CCC2(C)C3=CCC4C(C)(C)C(=O)CCC4(C)C3CC[C@@]12C (some centres undefined) , please.
[out] 1.03

[in] Tell me the measured normalized growth of O=c1c(O)c(-c2ccc(O)c(O)c2)oc2c(O)c(O)cc(O)c12 , please.
[out] 1

[in] Tell me the measured normalized growth of CCN1C[C@]2(C)CC[C@H](OC)[C@]34C2[C@H](O)[C@]2(OCO[C@@]25C[C@H](OC)[C@H]2C[C@]3(O)C5[C@H]2O)C14 , please.
[out] 0.999

[in] Tell me the measured normalized growth of CSc1nsc(SC)c1C(=O)NC(=O)Nc1ccc(F)cc1F , please.
[out] 1.1
